- System: ACHN
- MEASUREMENT NOTES: NCI60 five-dose screen
- Format: cell-based
- ASSAY SETUP: Homo sapiens
# yes = GI50 below 6 µM (exclusive); no = GI50 at/above 6 µM

Prompt line: Bench note: check whether CC[C@]12C=CCN3CC[C@@]4(c5ccc(OC)cc5N(C)[C@H]4[C@@](O)(C(=O)OC)[C@@H]1OC(=O)CCC[P+](C1CCCCC1)(C1CCCCC1)C1CCCCC1)[C@@H]32 shows GI50 below 6 µM
Response line: no

Prompt line: Moving on to the next compound: CC[C@]12C=CCN3CC[C@@]4(c5ccc(OC)cc5N(C)[C@H]4[C@@](O)(C(=O)OC)[C@@H]1OC(=O)CCCC[P+](c1ccc(C)cc1)(c1ccc(C)cc1)c1ccc(C)cc1)[C@@H]32 [10a]
Response line: yes

Prompt line: Please answer likewise for CC[C@]12C=CCN3CC[C@@]4(c5ccc(OC)cc5N(C)[C@H]4[C@@](O)(C(=O)OC)[C@@H]1OC(=O)CCCC[P+](c1ccccc1)(c1ccccc1)c1ccccc1)[C@@H]32 [compound 4, reference compound]
Response line: no

Prompt line: Same thing, different compound: CC[C@]12C=CCN3CC[C@@]4(c5ccc(OC)cc5N(C)[C@H]4[C@@](O)(C(=O)OC)[C@@H]1OC(=O)CCCC[P+](c1ccc(OC)cc1)(c1ccc(OC)cc1)c1ccc(OC)cc1)[C@@H]32 [10b]
Response line: no

Prompt line: Try this compound too: CCC12C=CCN3CCC4(c5ccc(OC)cc5N(C)C4C(O)(C(=O)OC)C1OC(=O)CCC[P+](c1ccc(C)cc1)(c1ccc(C)cc1)c1ccc(C)cc1)C32 (centres unmarked)
Response line: yes

====

- Test system: M14
- MEASUREMENT NOTES: NCI60 five-dose screen
- Format: cell-based
- ASSAY SETUP: Homo sapiens, M14
ASSAY ENDPOINT: GI50 (nM)
Lab book: enter the figure in nM, no units written.

Prompt line: Endpoint output: GI50 of CC[C@]12C=CCN3CC[C@@]4(c5ccc(OC)cc5N(C)[C@H]4[C@@](O)(C(=O)OC)[C@@H]1OC(=O)CCCC[P+](c1ccc(C)cc1)(c1ccc(C)cc1)c1ccc(C)cc1)[C@@H]32 [10a] . Value?
Response line: 1110

Prompt line: Now give it for CCC12C=CCN3CCC4(c5ccc(OC)cc5N(C)C4C(O)(C(=O)OC)C1OC(=O)CCC[P+](c1ccc(C)cc1)(c1ccc(C)cc1)c1ccc(C)cc1)C32 (centres unmarked) [9a] too.
Response line: 456

Prompt line: Also CC[C@]12C=CCN3CC[C@@]4(c5ccc(OC)cc5N(C)[C@H]4[C@@](O)(C(=O)OC)[C@@H]1OC(=O)CCCC[P+](c1ccc(OC)cc1)(c1ccc(OC)cc1)c1ccc(OC)cc1)[C@@H]32 [10b] , if possible.
Response line: 1200

Prompt line: Could you do the same for CC[C@]12C=CCN3CC[C@@]4(c5ccc(OC)cc5N(C)[C@H]4[C@@](O)(C(=O)OC)[C@@H]1OC(=O)CCC[P+](c1ccc(F)cc1)(c1ccc(F)cc1)c1ccc(F)cc1)[C@@H]32 [9c] , please?
Response line: 9100

Prompt line: Would you mind doing CC[C@]12C=CCN3CC[C@@]4(c5ccc(OC)cc5N(C)[C@H]4[C@@](O)(C(=O)OC)[C@@H]1OC(=O)CCCC[P+](c1ccccc1)(c1ccccc1)c1ccccc1)[C@@H]32 [compound 4, reference compound] as well?
Response line: 1790

====

- System: 60 human tumor cell lines (NCI60)
- MEASUREMENT NOTES: NCI60 one-dose screen, overall mean
- Format: cell-based
- ASSAY SETUP: Homo sapiens, 60 cell, read-out: Mean growth percent
Label scheme for activity at 10 µM: lower than -30% is false (0), -30% and above is true (1).

Prompt line: Say whether CCC12C=CCN3CC[C@@]4(c5ccc(OC)cc5N(C)[C@H]4[C@@](O)(C(=O)OC)[C@@H]1OC(C)=O)[C@@H]32 (some centres unmarked) shows activity at 10 µM of -30% or more.
Response line: true (1)

Prompt line: Then what about the compound CC[C@]12C=CCN3CC[C@@]4(c5ccc(OC)cc5N(C)[C@H]4[C@@](O)(C(=O)OC)[C@@H]1OC(=O)CCC[P+](C1CCCCC1)(C1CCCCC1)C1CCCCC1)[C@@H]32 ?
Response line: false (0)

Prompt line: Follow-up entry: CCC12C=CCN3CCC4(c5ccc(OC)cc5N(C)C4C(O)(C(=O)OC)C1OC(=O)CCC[P+](c1ccc(C)cc1)(c1ccc(C)cc1)c1ccc(C)cc1)C32 (centres unmarked)
Response line: false (0)

Prompt line: Now the compound CC[C@]12C=CCN3CC[C@@]4(c5ccc(OC)cc5N(C)[C@H]4[C@@](O)(C(=O)OC)[C@@H]1OC(=O)CCCC[P+](c1ccccc1)(c1ccccc1)c1ccccc1)[C@@H]32 [compound 4, reference compound]
Response line: true (1)

Prompt line: Now the compound CC[C@]12C=CCN3CC[C@@]4(c5ccc(OC)cc5N(C)[C@H]4[C@@](O)(C(=O)OC)[C@@H]1OC(=O)CCCC[P+](c1ccc(OC)cc1)(c1ccc(OC)cc1)c1ccc(OC)cc1)[C@@H]32 [10b]
Response line: false (0)

====

- Test system: 60 human tumor cell lines (NCI60)
- MEASUREMENT NOTES: NCI60 one-dose screen, overall mean
- Type: cell-based
- ASSAY SETUP: Homo sapiens, 60 cell, read-out: Mean growth percent
Could you please report measured activity at 10 µM for the items listed next?
Output spec: scalar in %, unitless text.

Prompt line: Form field: reported activity at 10 µM of CC[C@]12C=CCN3CC[C@@]4(c5ccc(OC)cc5N(C)[C@H]4[C@@](O)(C(=O)OC)[C@@H]1OC(=O)CCCC[P+](C1CCCCC1)(C1CCCCC1)C1CCCCC1)[C@@H]32 [10d]
Response line: -36.6

Prompt line: What about CC[C@]12C=CCN3CC[C@@]4(c5ccc(OC)cc5N(C)[C@H]4[C@@](O)(C(=O)OC)[C@@H]1OC(=O)CCC[P+](c1ccc(F)cc1)(c1ccc(F)cc1)c1ccc(F)cc1)[C@@H]32 [9c] ?
Response line: 26.3

Prompt line: Subsequent entry: CC[C@]12C=CCN3CC[C@@]4(c5ccc(OC)cc5N(C)[C@H]4[C@@](O)(C(=O)OC)[C@@H]1OC(=O)CCC[P+](c1ccccc1)(c1ccccc1)c1ccccc1OC)[C@@H]32 [9f]
Response line: -45.4

Prompt line: Same question, CC[C@]12C=CCN3CC[C@@]4(c5ccc(OC)cc5N(C)[C@H]4[C@@](O)(C(=O)OC)[C@@H]1OC(=O)CCCC[P+](c1ccc(C)cc1)(c1ccc(C)cc1)c1ccc(C)cc1)[C@@H]32 [10a] this time
Response line: -78.7

====

- Tested on: Breast Cancer panel
- MEASUREMENT NOTES: NCI60 five-dose screen, panel mean
- Type: cell-based
- ASSAY SETUP: Homo sapiens, read-out: Mean GI50
Kindly supply the reported GI50 values for the records listed here.
Answer format: numeric, µM implied, no suffix.

Prompt line: Return GI50 measured with Breast Cancer panel given this molecule: CC[C@]12C=CCN3CC[C@@]4(c5ccc(OC)cc5N(C)[C@H]4[C@@](O)(C(=O)OC)[C@@H]1OC(=O)CCC[P+](C1CCCCC1)(C1CCCCC1)C1CCCCC1)[C@@H]32
Response line: 1.54

Prompt line: And for CC[C@]12C=CCN3CC[C@@]4(c5ccc(OC)cc5N(C)[C@H]4[C@@](O)(C(=O)OC)[C@@H]1OC(=O)CCC[P+](c1ccc(F)cc1)(c1ccc(F)cc1)c1ccc(F)cc1)[C@@H]32 ?
Response line: 8.04

Prompt line: For CC[C@]12C=CCN3CC[C@@]4(c5ccc(OC)cc5N(C)[C@H]4[C@@](O)(C(=O)OC)[C@@H]1OC(=O)CCC[P+](c1ccccc1)(c1ccccc1)c1ccccc1OC)[C@@H]32 then?
Response line: 0.31

Prompt line: Item: CCC12C=CCN3CCC4(c5ccc(OC)cc5N(C)C4C(O)(C(=O)OC)C1OC(=O)CCC[P+](c1ccc(C)cc1)(c1ccc(C)cc1)c1ccc(C)cc1)C32 (stereo not shown)
Response line: 0.27

====

- Tested on: T-47D
- MEASUREMENT NOTES: NCI60 one-dose screen
- Assay type: cell-based
- ASSAY SETUP: Homo sapiens, T47D, read-out: Growth percent
I'd be grateful if you could share measured activity at 10 µM for these entries.
Provide only the numeric value, understood in %.

Prompt line: Report activity at 10 µM for CC[C@]12C=CCN3CC[C@@]4(c5ccc(OC)cc5N(C)[C@H]4[C@@](O)(C(=O)OC)[C@@H]1OC(=O)CCCC[P+](C1CCCCC1)(C1CCCCC1)C1CCCCC1)[C@@H]32 [10d] tested on T-47D.
Response line: 3.83

Prompt line: Follow-up item: CC[C@]12C=CCN3CC[C@@]4(c5ccc(OC)cc5N(C)[C@H]4[C@@](O)(C(=O)OC)[C@@H]1OC(=O)CCC[P+](C1CCCCC1)(C1CCCCC1)C1CCCCC1)[C@@H]32 [9d]
Response line: -1.81

Prompt line: Repeat with CC[C@]12C=CCN3CC[C@@]4(c5ccc(OC)cc5N(C)[C@H]4[C@@](O)(C(=O)OC)[C@@H]1OC(=O)CCC[P+](c1ccc(F)cc1)(c1ccc(F)cc1)c1ccc(F)cc1)[C@@H]32 [9c]
Response line: 10.4

Prompt line: Follow-up entry: CCC12C=CCN3CCC4(c5ccc(OC)cc5N(C)C4C(O)(C(=O)OC)C1OC(=O)CCC[P+](c1ccc(C)cc1)(c1ccc(C)cc1)c1ccc(C)cc1)C32 (centres unmarked) [9a]
Response line: -78.4

Prompt line: CC[C@]12C=CCN3CC[C@@]4(c5ccc(OC)cc5N(C)[C@H]4[C@@](O)(C(=O)OC)[C@@H]1OC(=O)CCCC[P+](c1ccc(C)cc1)(c1ccc(C)cc1)c1ccc(C)cc1)[C@@H]32 [10a] ?
Response line: -64.5
